Biological target: recombinant human FLAP protein (Homo sapiens, UniProt P20292)
Construct: made in house; host or cells: Sf9 insect cells (membrane fraction, 100,000 x g pellet)
Sequence (P20292 whole entry): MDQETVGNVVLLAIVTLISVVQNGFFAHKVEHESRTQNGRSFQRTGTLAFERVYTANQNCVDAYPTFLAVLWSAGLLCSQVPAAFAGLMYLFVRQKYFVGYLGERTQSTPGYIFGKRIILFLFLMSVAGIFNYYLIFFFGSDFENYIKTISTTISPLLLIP
Assay: FLAP binding assay (SPA, displacement of [125I]L-691,831)
Conditions: membranes of sf9 cells expressing human FLAP, [125I]L-691,831 probe; read-out: hFLAP binding IC50
MEASURE: IC50 (nM)

entry_smiles=CN(C)S(=O)(=O)c1cccc(NC(=O)C2(c3ccc(-c4cnc(N)nc4)cc3)CCOCC2)c1 unit_label=nM reading=110
entry_smiles=Nc1ncc(-c2ccc(C3(C(=O)Nc4cc(C(F)(F)F)ccn4)CCOCC3)cc2)cn1 unit_label=nM reading=140
entry_smiles=CCOC(=O)c1sc(NC(=O)C2(c3ccc(-c4cnc(N)nc4)cc3)CCOCC2)nc1-c1ccccc1 unit_label=nM reading=120

----------
Biological target: recombinant human FLAP protein (Homo sapiens, UniProt P20292)
Test: FLAP binding assay (SPA, displacement of [125I]L-691,831)
Settings: membranes of sf9 cells expressing human FLAP, [125I]L-691,831 probe; read-out: hFLAP binding IC50
MEASURE: IC50 (nM)

Some entries whose results are on file:
compound=Cc1csc(NC(=O)C2(c3ccc(-c4cnc(N)nc4)cc3)CCC2)n1 tested_on="recombinant human FLAP protein (Homo sapiens, UniProt P20292)" reading=8.4
compound="CCC(C)(C(=O)Nc1ccc(-c2csc(C)n2)cn1)c1ccc(-c2cnc(N)nc2)cc1 (stereo not drawn)" tested_on="recombinant human FLAP protein (Homo sapiens, UniProt P20292)" reading=12
compound=Nc1ncc(-c2ccc(C3(C(=O)Nc4ccccn4)CCCCC3)cc2)cn1 tested_on="recombinant human FLAP protein (Homo sapiens, UniProt P20292)" reading=13
compound=COc1ccc(NC(=O)C2(c3ccc(-c4cnc(N)nc4)cc3)CCC2)nc1 tested_on="recombinant human FLAP protein (Homo sapiens, UniProt P20292)" reading=8.25

I. COc1ccc2nc(NC(=O)C3(c4ccc(-c5cnc(N)nc5)cc4)CCOCC3)sc2c1
II. Nc1ncc(-c2ccc(C3(C(=O)Nc4ccc5ncsc5c4)CCC3)cn2)cn1
### Prompt API: POST /compare with I and II ; response names the item with higher IC50. Which one? Tell me its label.
### Response II

----------
Biological target: recombinant human FLAP protein (Homo sapiens, UniProt P20292)
Assay: FLAP binding assay (SPA, displacement of [125I]L-691,831)
Details: membranes of sf9 cells expressing human FLAP, [125I]L-691,831 probe; read-out: hFLAP binding IC50
pIC50: −log10 of the molar value.
MEASURE: pIC50

A. Cc1nc(-c2ccc(NC(=O)C3(c4ccc(-c5cnc(N)nc5)cc4)CCCC3)nc2)cs1
B. CCOC(=O)c1sc2ccc(NC(=O)C3(c4ccc(-c5cnc(N)nc5)cc4)CCOCC3)cc2c1C
C. CC(C)(C)c1cccc(NC(=O)C2(c3ccc(-c4cnc(N)nc4)cc3)CCOCC2)c1
### Prompt Sort the entries above by pIC50, largest first. Output spec: a listing of the labels in the requested order.
### Response A, B, C
(A: 8.15, B: 7.91, C: 7.01)

I. Nc1ncc(-c2ccc(C3(C(=O)Nc4ccc(O)c(C(=O)O)c4)CCC3)cc2)cn1
II. Nc1ncc(-c2ccc(C3(C(=O)Nc4cc(C(F)(F)F)no4)CCOCC3)cc2)cn1
### Prompt I'm curious, which of these has a smaller pIC50 number: I or II ? Let me know the label of the one you choose.
### Response II
(II: 6.76, I: 7.33)

P. COC(=O)c1cccc(NC(=O)C2(c3ccc(-c4cnc(N)nc4)cc3)CCOCC2)c1
Q. COc1cc(NC(=O)C2(c3ccc(-c4cnc(N)nc4)cc3)CCC2)ccn1
R. N#Cc1ccc(NC(=O)C2(c3ccc(-c4cnc(N)nc4)cc3)CCC2)cc1
S. Nc1ncc(-c2ccc(C3(C(=O)Nc4cc5ccccc5cn4)CCOCC3)cc2)cn1
T. Nc1ncc(-c2ccc(C3(C(=O)Nc4ccc(C5CCCCC5)cc4)CCOCC3)cc2)cn1
### Prompt Please list these in order of increasing pIC50. Thank you! # respond with the labels, arranged in the requested order
### Response T, P, S, Q, R

A. N#Cc1ccc(NC(=O)C2(c3ccc(-c4cnc(N)nc4)cc3)CCC2)cn1
B. Nc1ncc(-c2ccc(C3(C(=O)Nc4ccc5cnccc5c4)CCOCC3)cc2)cn1
### Prompt Between the two listed entries A and B , which has its pIC50 at the higher number? Give the label of your selection.
### Response A
(A: 8.25, B: 7.74)

----------
Molecular target: recombinant human FLAP protein (Homo sapiens)
Construct: made in house; host or cells: Sf9 insect cells (membrane fraction, 100,000 x g pellet)
Experiment: FLAP binding assay (SPA, displacement of [125I]L-691,831)
Conditions: membranes of sf9 cells expressing human FLAP, [125I]L-691,831 probe; read-out: hFLAP binding IC50
pIC50: −log10 of the molar value.
MEASURE: pIC50

a. Cc1cc(NC(=O)C2(c3ccc(-c4cnc(N)nc4)cc3)CCOCC2)cc(C(F)(F)F)c1 [Example 46]
b. Cn1cc(-c2ccc(NC(=O)C3(c4ccc(-c5cnc(N)nc5)cn4)CCC3)nc2)cn1 [Example 109]
c. COc1ccc(-c2ccc(NC(=O)C(C)(c3ccc(-c4cnc5[nH]ccc5c4)cc3)C(C)C)nc2)cn1 (stereo not drawn) [Example 166]
### Prompt Rank the 3 compounds shown above by pIC50, smallest number first. Provide the ranking by listing each label in its place in the requested order.
### Response a, b, c

----------
Biological target: recombinant human FLAP protein (Homo sapiens, UniProt P20292)
Construct: made in house; host or cells: Sf9 insect cells (membrane fraction, 100,000 x g pellet)
Assay: FLAP binding assay (SPA, displacement of [125I]L-691,831)
Conditions: membranes of sf9 cells expressing human FLAP, [125I]L-691,831 probe; read-out: hFLAP binding IC50
MEASURE: IC50 (µM)

compound="Nc1ncc(-c2ccc(C3(C(=O)Nc4ccc(OCc5ccccc5)cc4)CCOCC3)cc2)cn1 [Example 85]" unit_label=µM reading=0.0125
compound="COc1ccc(-c2nc(NC(=O)C3(c4ccc(-c5cnc(N)nc5)cc4)CCC3)n[nH]2)cc1 [Example 244]" unit_label=µM reading=0.0109
compound="COc1cncc(-c2ccc(NC(=O)C3(c4ccc(-c5cnc(N)nc5)cc4)CCOCC3)nc2)c1 [Example 135]" unit_label=µM reading=0.0111
